- target or test system: T1, BCMA (Homo sapiens (Human), UniProt Q02223 1-54, limits assumed)
- T1 sequence: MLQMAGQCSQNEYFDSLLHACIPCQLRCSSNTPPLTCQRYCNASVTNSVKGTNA
- experimental details: ELISA, format not described
- Set-up: unit not given here
Labelling field: enter True if recorded ELISA_avg is less than 7. Enter False if it equals or exceeds that cut-off.

binder: D-domain SEQ ID NO: 70 (designed binder) MGSWSEFYDRLYAINQRLFALGGSEAELAAFEKEIAAFESELQAYKGKGNPEVEDLRWYAAFIRAQLQAYRHN
label class: True

binder: D-domain SEQ ID NO: 59 (designed binder) MGSWTEFAWRLEAINQRLQALGGSEAELAAFEKEIAAFESELQAYKGKGKPEVEALRAYAAKIRTRLQAYRHN
label class: False

Report whether reported ELISA_avg is lower than 7 (strictly) for D-domain SEQ ID NO: 233 (designed binder) MGSWYEFKHRLAIIKWYLEALGGSEAELAKFEAWIAEFEMILQRYKGKGNPEVEALRKEAAAIRDELQAYRHN
True

Report whether reported ELISA_avg is lower than 7 (strictly) for D-domain SEQ ID NO: 303 (designed binder) MGSWEYFKYGLATIKMHLEALGGSEAELADFEHWIAHFEHQLQMYKGKGNPEVEALRKEAAAIRDELQAYRHN
False

Report whether reported ELISA_avg is lower than 7 (strictly) for D-domain SEQ ID NO: 107 (designed binder) MGSWMEFSHRLDAIHERLYALGGSEAELAAFEKEIAAFESELQAYKGKGNPEVEDLRFAAAIIRVQLQAYRHN
True

Report whether reported ELISA_avg is lower than 7 (strictly) for D-domain SEQ ID NO: 73 (designed binder) MGSWVEFQERLMAISDRLYALGGSEAELAAFEKEIAAFESELQAYKGKGNPEVEELRWQAAMIRYTLQAYRHN
True
